experimental_target: T1, DLG3_2, Q92796
T1 sequence (Q92796 221-321, limits assumed, looked up): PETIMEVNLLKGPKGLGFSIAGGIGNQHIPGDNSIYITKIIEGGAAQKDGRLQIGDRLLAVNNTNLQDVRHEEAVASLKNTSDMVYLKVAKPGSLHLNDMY
protocol_details: holdup assay
Parameters: key: below the threshold = too weak to quantify, mostly under pKd 3.1 to 4
condition_context: plain residues with an end cap or a label only (N-terminal biotin on a linker: ttds)

[
  {
    "binder": "RHTTSTETAV [HPV30-E6, P36809]",
    "pKd": 5.41
  },
  {
    "binder": "PRVKPQRSKV [PPP1R13L, Q8WUF5]",
    "pKd": 3.73
  },
  {
    "binder": "SGSRPSATVV [HPV73-E6, Q82005]",
    "pKd": 4.11
  },
  {
    "binder": "RLPKIKETTV [FRMPD4, Q14CM0]",
    "pKd": 5.6
  },
  {
    "binder": "QRQARSETLV [HPV59-E6, Q81964]",
    "pKd": 5.17
  },
  {
    "binder": "RLQRRRETQV [HPV18-E6, P06463]",
    "pKd": 5.46
  },
  {
    "binder": "PVRVCEETSL [OTULIN, Q96BN8]",
    "pKd": 4.35
  },
  {
    "binder": "SSLQSLETSV [ATP2B4, P23634]",
    "pKd": 5.2
  },
  {
    "binder": "FHPLGADSQV [SLC2A1, P11166]",
    "pKd": 4.03
  }
]
